Molecular target: CYP2A6 (Homo sapiens)
Construct: tissue celsis X008064-LSL; host or cells: human liver microsomes
Sequence (P11509 whole entry): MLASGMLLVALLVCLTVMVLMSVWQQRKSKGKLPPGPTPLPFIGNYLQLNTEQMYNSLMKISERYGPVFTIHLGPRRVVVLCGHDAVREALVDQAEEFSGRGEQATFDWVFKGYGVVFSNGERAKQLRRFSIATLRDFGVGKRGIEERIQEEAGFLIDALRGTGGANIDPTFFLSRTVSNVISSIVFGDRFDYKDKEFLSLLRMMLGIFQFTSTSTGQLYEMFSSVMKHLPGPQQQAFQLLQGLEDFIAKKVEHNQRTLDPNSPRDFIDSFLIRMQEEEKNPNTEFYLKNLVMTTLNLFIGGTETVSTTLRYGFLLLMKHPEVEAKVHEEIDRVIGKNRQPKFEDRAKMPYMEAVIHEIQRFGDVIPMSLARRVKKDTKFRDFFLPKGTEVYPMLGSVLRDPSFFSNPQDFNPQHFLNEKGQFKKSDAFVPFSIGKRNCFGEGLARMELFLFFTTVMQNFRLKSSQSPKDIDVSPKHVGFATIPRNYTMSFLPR
Assay: Human cytochrome P450 inhibition (human liver microsomes)
Format: in vitro ADME
assay-metric: pKi
Field pKi (float): negative decimal logarithm of the concentration in molar.

Entry CCC(CO)NCCOc1c(C)cccc1Cl (stereo not shown) needs its pKi filled in; supply it.
3.43

---

Target: Na+ channel (site 2)
Assay: Radioligand binding
assay-metric: Ki (µM)
Only the number, expressed in µM, is required.

For Na+ channel (site 2), give the measured Ki of the entry CCC(CO)NCCOc1c(C)cccc1Cl (stereo not shown) [KM-408]
14

---

Assay: Pharmacokinetics in plasma
Type: in vivo, rats
Conditions: male, Wistar, rat, plasma, po, 50 mg/kg, rats, po 50 mg/kg; read-out: F
assay-metric: bioavailability
Just so you know, I need the unit written after the number.

Entry CCC(CO)NCCOc1c(C)cccc1Cl (stereo not shown) needs its bioavailability filled in; supply it.
3.9%

---

Assay: Tissue distribution;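 also: organ homogenates in PBS analysed by HPLC after FMOC-Cl derivatization, non-compartmental analysis, Kp as tissue over plasma AUC, half-life taken as ln2 divided by λz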
Format: in vivo, rats
Conditions: male, Wistar, rat; 5 mg/kg iv, Lungs
assay-metric: Cmax

Entry CCC(CO)NCCOc1c(C)cccc1Cl (stereo not shown) needs its Cmax filled in; supply it.
4350 ng/g

---

Target: hNav1.6 sodium channel (Homo sapiens, UniProt Q9UQD0)
Construct: host or cells: CHO cells
Sequence (Q9UQD0 whole entry): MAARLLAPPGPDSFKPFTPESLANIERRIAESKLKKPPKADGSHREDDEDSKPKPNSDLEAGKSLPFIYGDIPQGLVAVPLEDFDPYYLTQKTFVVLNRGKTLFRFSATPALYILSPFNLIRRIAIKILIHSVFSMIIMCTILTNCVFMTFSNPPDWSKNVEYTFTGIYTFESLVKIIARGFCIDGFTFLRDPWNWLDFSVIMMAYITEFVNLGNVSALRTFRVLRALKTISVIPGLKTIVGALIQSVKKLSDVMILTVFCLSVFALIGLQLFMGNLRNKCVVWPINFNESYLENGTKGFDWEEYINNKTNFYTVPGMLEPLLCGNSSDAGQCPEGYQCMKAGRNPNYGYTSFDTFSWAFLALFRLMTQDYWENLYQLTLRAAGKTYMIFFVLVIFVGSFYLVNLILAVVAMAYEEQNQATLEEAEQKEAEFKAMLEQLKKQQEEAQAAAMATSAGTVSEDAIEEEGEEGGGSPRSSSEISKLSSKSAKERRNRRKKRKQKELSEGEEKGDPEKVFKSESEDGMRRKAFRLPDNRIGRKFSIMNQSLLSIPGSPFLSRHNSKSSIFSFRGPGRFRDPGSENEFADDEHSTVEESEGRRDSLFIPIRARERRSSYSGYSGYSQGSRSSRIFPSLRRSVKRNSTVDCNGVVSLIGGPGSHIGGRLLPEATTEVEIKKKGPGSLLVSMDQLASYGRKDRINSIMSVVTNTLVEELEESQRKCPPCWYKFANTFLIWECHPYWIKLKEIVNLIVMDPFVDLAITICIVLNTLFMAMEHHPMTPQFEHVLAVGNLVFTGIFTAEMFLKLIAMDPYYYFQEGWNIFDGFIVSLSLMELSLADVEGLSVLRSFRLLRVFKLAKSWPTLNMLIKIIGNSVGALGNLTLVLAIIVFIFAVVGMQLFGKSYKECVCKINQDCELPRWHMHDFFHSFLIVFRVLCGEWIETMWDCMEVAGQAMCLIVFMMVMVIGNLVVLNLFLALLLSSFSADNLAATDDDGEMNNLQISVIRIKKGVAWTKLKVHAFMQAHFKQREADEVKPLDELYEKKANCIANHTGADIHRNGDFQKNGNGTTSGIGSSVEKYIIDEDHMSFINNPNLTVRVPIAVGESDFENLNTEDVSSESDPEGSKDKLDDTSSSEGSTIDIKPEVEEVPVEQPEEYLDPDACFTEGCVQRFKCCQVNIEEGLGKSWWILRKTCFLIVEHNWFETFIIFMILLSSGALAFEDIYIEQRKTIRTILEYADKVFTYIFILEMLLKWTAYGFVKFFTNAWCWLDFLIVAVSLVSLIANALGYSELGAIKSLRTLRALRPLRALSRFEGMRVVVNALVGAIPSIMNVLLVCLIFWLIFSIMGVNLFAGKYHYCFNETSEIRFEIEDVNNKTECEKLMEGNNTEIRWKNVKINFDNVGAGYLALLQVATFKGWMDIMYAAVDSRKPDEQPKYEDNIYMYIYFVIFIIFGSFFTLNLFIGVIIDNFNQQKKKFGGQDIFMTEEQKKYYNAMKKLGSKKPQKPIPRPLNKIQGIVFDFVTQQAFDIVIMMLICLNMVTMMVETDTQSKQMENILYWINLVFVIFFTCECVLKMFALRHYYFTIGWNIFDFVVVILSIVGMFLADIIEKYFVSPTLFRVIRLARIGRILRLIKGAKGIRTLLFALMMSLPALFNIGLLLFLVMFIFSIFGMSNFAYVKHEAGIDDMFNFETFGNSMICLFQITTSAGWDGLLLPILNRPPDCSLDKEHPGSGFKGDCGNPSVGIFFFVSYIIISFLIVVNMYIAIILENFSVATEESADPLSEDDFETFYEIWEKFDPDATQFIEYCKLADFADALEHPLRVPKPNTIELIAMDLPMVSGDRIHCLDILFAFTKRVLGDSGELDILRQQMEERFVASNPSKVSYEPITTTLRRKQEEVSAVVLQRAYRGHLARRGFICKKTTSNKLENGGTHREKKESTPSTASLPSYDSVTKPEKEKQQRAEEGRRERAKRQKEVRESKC
Experiment: Nav channel electrophysiology (IonWorks Quattro)
Assay type: cell-based
Conditions: Inactivated state
pIC50: −log10 of the molar value.
assay-metric: pIC50

For hNav1.6 sodium channel (Homo sapiens, UniProt Q9UQD0), give the measured pIC50 of the entry CCC(CO)NCCOc1c(C)cccc1Cl (stereo not shown)
> 5.00

---

Biological target: α1 (non-selective)
Test: Radioligand binding
assay-metric: Ki (µM)
Only the number, expressed in µM, is required.

Entry CCC(CO)NCCOc1c(C)cccc1Cl (stereo not shown) needs its Ki filled in; supply it.
3.3

---

Target: D3 (Homo sapiens)
Sequence (P35462 whole entry): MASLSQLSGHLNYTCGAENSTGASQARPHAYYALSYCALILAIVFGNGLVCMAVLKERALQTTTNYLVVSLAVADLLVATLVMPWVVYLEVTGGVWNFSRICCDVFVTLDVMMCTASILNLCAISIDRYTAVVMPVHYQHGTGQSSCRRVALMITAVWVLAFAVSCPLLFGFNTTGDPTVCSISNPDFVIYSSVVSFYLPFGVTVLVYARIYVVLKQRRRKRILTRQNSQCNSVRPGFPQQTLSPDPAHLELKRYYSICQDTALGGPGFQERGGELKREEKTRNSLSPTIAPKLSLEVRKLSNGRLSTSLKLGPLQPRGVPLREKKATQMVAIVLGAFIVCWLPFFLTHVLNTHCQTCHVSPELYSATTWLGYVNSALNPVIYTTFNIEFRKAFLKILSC
assay-metric: IC50 (µM)
Only the number, expressed in µM, is required.

Entry CCC(CO)NCCOc1c(C)cccc1Cl (stereo not shown) needs its IC50 filled in; supply it.
22

---

Biological target: hNav1.5 sodium channel (Homo sapiens)
Construct: host or cells: CHO cells
Sequence (Q14524 whole entry): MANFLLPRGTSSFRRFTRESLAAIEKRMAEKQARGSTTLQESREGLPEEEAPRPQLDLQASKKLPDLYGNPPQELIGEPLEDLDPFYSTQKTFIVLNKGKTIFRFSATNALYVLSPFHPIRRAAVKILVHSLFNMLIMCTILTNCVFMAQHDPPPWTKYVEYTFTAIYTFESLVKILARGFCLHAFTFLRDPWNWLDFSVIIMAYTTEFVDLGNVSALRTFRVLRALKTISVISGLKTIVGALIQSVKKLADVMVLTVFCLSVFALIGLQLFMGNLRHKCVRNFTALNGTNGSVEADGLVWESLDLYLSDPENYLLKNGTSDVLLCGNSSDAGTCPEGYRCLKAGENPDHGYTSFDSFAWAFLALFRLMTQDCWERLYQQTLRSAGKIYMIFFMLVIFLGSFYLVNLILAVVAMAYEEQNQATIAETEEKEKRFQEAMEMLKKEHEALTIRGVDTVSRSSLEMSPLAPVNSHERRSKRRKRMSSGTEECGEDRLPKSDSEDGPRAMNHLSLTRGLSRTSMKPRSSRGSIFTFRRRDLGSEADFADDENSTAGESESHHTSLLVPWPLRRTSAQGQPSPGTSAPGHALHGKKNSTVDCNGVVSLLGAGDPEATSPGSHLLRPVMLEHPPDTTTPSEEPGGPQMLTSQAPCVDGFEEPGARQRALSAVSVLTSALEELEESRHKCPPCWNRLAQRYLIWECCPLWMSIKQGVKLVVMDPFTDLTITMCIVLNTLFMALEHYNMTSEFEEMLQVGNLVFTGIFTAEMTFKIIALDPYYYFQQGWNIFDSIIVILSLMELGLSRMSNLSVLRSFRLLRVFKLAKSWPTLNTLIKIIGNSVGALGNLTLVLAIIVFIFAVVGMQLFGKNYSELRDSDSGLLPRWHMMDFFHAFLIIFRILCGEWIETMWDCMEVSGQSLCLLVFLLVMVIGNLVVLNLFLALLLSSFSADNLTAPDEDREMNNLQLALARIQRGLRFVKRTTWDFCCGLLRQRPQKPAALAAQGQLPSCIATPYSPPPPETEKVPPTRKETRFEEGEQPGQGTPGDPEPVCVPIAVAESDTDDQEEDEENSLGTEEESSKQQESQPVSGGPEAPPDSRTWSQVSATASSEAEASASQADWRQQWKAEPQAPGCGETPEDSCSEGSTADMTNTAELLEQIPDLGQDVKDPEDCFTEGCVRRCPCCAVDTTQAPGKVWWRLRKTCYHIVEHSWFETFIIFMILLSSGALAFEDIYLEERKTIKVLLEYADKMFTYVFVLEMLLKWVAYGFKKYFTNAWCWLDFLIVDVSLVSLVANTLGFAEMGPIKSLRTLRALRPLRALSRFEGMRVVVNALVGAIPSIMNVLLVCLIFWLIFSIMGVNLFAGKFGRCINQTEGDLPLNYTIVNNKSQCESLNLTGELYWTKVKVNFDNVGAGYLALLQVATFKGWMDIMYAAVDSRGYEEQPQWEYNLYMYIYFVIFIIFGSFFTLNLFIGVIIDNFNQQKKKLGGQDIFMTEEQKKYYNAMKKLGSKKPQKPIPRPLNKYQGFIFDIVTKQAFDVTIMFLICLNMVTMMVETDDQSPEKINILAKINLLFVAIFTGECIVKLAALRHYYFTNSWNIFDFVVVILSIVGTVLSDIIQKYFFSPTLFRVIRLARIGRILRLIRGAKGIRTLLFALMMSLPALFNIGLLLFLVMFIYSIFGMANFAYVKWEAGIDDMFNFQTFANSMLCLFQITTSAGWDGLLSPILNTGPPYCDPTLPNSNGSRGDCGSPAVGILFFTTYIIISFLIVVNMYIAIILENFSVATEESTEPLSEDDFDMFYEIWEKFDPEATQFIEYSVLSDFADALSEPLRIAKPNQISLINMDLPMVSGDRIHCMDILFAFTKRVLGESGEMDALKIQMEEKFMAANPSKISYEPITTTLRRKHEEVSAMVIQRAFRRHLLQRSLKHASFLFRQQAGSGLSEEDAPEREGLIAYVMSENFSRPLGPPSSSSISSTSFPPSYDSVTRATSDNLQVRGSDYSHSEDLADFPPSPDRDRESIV
Assay: Nav channel electrophysiology (IonWorks Quattro)
Format: cell-based
Details: 10 Hz
assay-metric: IC50

For hNav1.5 sodium channel (Homo sapiens), give the measured IC50 of the entry CCC(CO)NCCOc1c(C)cccc1Cl (stereo not shown)
4.85 µM

---

Target: UniProt P08173
assay-metric: pIC50
Field pIC50 (float): negative decimal logarithm of the concentration in molar.

Entry CCC(CO)NCCOc1c(C)cccc1Cl (stereo not shown) needs its pIC50 filled in; supply it.
4.62

---

Biological target: α2 (non-selective)
Test: Radioligand binding
assay-metric: Ki (µM)
Only the number, expressed in µM, is required.

For α2 (non-selective), give the measured Ki of the entry CCC(CO)NCCOc1c(C)cccc1Cl (stereo not shown)
10

---

Experiment: Pharmacokinetics in plasma
Assay type: in vivo, rats
Conditions: male, Wistar, rat, plasma; rats, po 50 mg/kg
assay-metric: AUC(0-t) (ng·h/mL)
Only the number, expressed in ng·h/mL, is required.

Entry CCC(CO)NCCOc1c(C)cccc1Cl (stereo not shown) needs its AUC(0-t) filled in; supply it.
430
